Let's look at some compounds and their measured IC50.
# Test system: gel-filtered platelets
# Assay explanation: In vitro inhibition of thrombin-induced gel-filtered platelet aggregation
# Type: cell-based
# Measurement context: Platelet; human gel-filtered platelets; agonist thrombin 50 μL of 1 unit/mL; read-out: Thrmb IC50 (Thrombin-induced aggregation of gel-filtered platelets)
Put your answer as a value accompanied by its unit after it.

# Smiles representation, Assay target, IC50
rows = [
    ("NCC[C@H](NC(=O)[C@H](Cc1ccc(F)c(F)c1)NC(=O)Nc1ccc2c(c1)c(CN1CCCC1)cn2Cc1ccc(F)cc1)C(=O)NCc1ccccc1", "gel-filtered platelets", "13.6 µM"),
    ("N=C(N)NCCC[C@H](NC(=O)[C@H](Cc1cscn1)NC(=O)Nc1ccc2c(CN3CCCC3)cn(Cc3c(Cl)cccc3Cl)c2c1)C(=O)NCc1ccccc1", "gel-filtered platelets", "1 µM"),
    ("N=C(N)NCCC[C@H](NC(=O)[C@H](Cc1cccc(F)c1)NC(=O)Nc1ccc2c(CN3CCCC3)cn(Cc3c(Cl)cccc3Cl)c2c1)C(=O)NCc1ccccc1", "gel-filtered platelets", "0.88 µM"),
    ("COc1ccc(C[C@H](NC(=O)Nc2ccc3c(CN(C)CCCN(C)C)cn(Cc4ccc(F)cc4)c3c2)C(=O)N[C@@H](CCCNC(=N)N)C(=O)NCc2ccccc2)cc1", "gel-filtered platelets", "48.6 µM"),
]

IC50 for gel-filtered platelets with input COc1ccc(C[C@H](NC(=O)Nc2ccc3c(CN4CCCC4)cn(Cc4ccc(C#N)cc4)c3c2)C(=O)N[C@@H](CCCNC(=N)N)C(=O)NCc2ccccc2)cc1 equals 16.2 µM

Measured IC50 (gel-filtered platelets), entry NCC[C@H](NC(=O)[C@H](Cc1ccc(F)c(F)c1)NC(=O)Nc1ccc2c(CN3CCCC3)cn(Cc3c(Cl)cccc3Cl)c2c1)C(=O)NCCc1c[nH]cn1 : 1.9 µM

The reported gel-filtered platelets IC50 of NCCC[C@H](NC(=O)[C@H](Cc1ccc(F)c(F)c1)NC(=O)Nc1ccc2c(CN3CCCC3)cn(Cc3c(Cl)cccc3Cl)c2c1)C(=O)NCc1ccc(Cl)c(Cl)c1 is 0.93 µM
